Experiment: Half life in rat liver microsome
Assay type: ADME
Settings: liver microsomes
reported_endpoint: half-life (min)

compound=Cc1cnc2c(C(F)(F)F)cccc2c1-c1cccc(-c2ccc(F)c(S(C)(=O)=O)c2)c1 reported_endpoint=half-life inequality_symbol== number=19
compound=CCS(=O)(=O)c1cccc(-c2cccc(-c3ccnc4c(C(F)(F)F)cccc34)c2)c1 reported_endpoint=half-life inequality_symbol=> number=30
compound=CS(=O)(=O)c1cccc(-c2cccc(-c3c(Cc4ccccc4)cnc4c(C(F)(F)F)cccc34)c2)c1 reported_endpoint=half-life inequality_symbol== number=16
compound="O=S(=O)(c1ccccc1)N(CC(F)(F)F)c1ccc(C(O)(C(F)(F)F)C(F)(F)F)cc1 [T091317]" reported_endpoint=half-life inequality_symbol=> number=30

Origin of measurements: ChEMBL document CHEMBL1158561
